Test system: A3-KAW;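 note: growth inhibition of human A3-KAW cells, read out with a cell viability assay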
Assay: cells
Format: functional, cell-based, Homo sapiens
Conditions: Homo sapiens, A3-KAW
Description: SANGER: Inhibition of human A3-KAW cell growth in a cell viability assay.
IC50 less than 4 µM is 1; IC50 greater than or equal to 4 µM is 0.

Consider the following illustrative entries.
Q: Answer whether the compound Nc1ccn([C@@H]2O[C@H](CO)[C@@H](O)C2(F)F)c(=O)n1 has IC50 strictly less than 4 µM
Result: 1

Q: Is the reported IC50 for CC[C@H](CO)Nc1nc(NCc2ccccc2)c2ncn(C(C)C)c2n1 strictly below 4 µM?
Result: 0

Q: Record O=C(O)c1ccc(-c2c[nH]c3ncc(-c4ccccc4)cc23)cc1C1CCCC1 : is its IC50 strictly below 4 µM?
Result: 0

Q: Field: below-cutoff. Rule: recorded IC50 strictly less than 4 µM. Subject: CN(C)C(=N)NC(=N)N
Result: 0

Further cases:
Q: Is it true that IC50 reported for COc1cc(-c2nn([C@H]3CC[C@H](N4CCN(C(C)=O)CC4)CC3)c3ncnc(N)c23)ccc1NC(=O)c1cc2ccccc2n1C is less than 4 µM?
Result: 0

Q: I'd appreciate it if you could check whether CC(C)CCN1c2nc(Nc3cc(F)c(O)c(F)c3)ncc2N(C)C(=O)C1C (stereo unspecified) has IC50 smaller than 4 µM.
Result: 1

---

Tested on: NCI-H2342;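 note: growth inhibition of the cancer cell line, determined with a cell viability assay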
Test: cells
Format: functional, cell-based, Homo sapiens
Conditions: Homo sapiens, NCI-H2342
Description: SANGER: Inhibition of human NCI-H2342 cell growth in a cell viability assay.
pIC50: −log10 of the molar value.
MEASURED PARAMETER: pIC50

Q: Recall and state the measured pIC50 for CC(C)c1ccccc1Cc1cc(C(=O)Nc2ccc(S(=O)(=O)c3ccccc3C(C)(C)C)cc2)c(O)c(O)c1O .
Result: 6.57

Q: Report pIC50 for C=C(c1ccc(C(=O)O)cc1)c1cc2c(cc1C)C(C)(C)CCC2(C)C
Result: < 5.10

Q: Annotate the compound Oc1ccc2ccccc2c1SSc1c(O)ccc2ccccc12 with its measured pIC50.
Result: < 4.49

Q: Report pIC50 for CC(C)CCN1c2nc(Nc3cc(F)c(O)c(F)c3)ncc2N(C)C(=O)C1C (stereo unspecified)
Result: < 5.30

Q: State its pIC50 for this compound: N#Cc1c(O)c2c(-c3ccc(-c4ccccc4O)cc3)csc2[nH]c1=O
Result: < 5.99

Continue with the next compound.
Q: Look up and state reported pIC50 for CCC/C=C/C=C/C(=O)O[C@H]1/C(=C/C(=O)OC)C[C@H]2C[C@H]([C@@H](C)O)OC(=O)C[C@H](O)C[C@@H]3C[C@H](OC(C)=O)C(C)(C)[C@](O)(C[C@@H]4C/C(=C/C(=O)OC)C[C@H](/C=C/C(C)(C)[C@]1(O)O2)O4)O3
Result: < 8.10

---

System: KGN
Assay: cells
Assay type: functional, cell-based, Homo sapiens
Settings: Homo sapiens, KGN
Description: SANGER: Inhibition of human KGN cell growth in a cell viability assay.
The compounds listed here are annotated with their IC50.
Provide the reading as a plain figure in µM.

Q: State its IC50 for this compound: Oc1ccc2ccccc2c1SSc1c(O)ccc2ccccc12
Result: 12.4

Here is the next item to consider.
Q: Provide only the value of recorded IC50 for OCCCNc1cc(-c2ccnc(Nc3cccc(Cl)c3)n2)ccn1
Result: 0.0105

---

System: HCC1599;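 note: growth inhibition of HCC1599 cells, read out in a cell viability assay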
Assay: cells
Type: functional, cell-based, Homo sapiens
Settings: Homo sapiens, HCC1599
Description: SANGER: Inhibition of human HCC1599 cell growth in a cell viability assay.
pIC50: −log10 of the molar value. Structures can show the parent of a compound that is named as a salt.
Classification field: enter Criterion met for pIC50 values not below 6, Criterion not met for values below it.

Examples from the recorded data:
Q: Say whether Oc1ccc2ccccc2c1SSc1c(O)ccc2ccccc12 shows pIC50 of 6 or more.
Result: Criterion not met

Q: Hi team, for COc1cccc2c1C(=O)c1c(O)c3c(c(O)c1C2=O)C[C@@](O)(C(=O)CO)C[C@@H]3O[C@H]1C[C@H](N)[C@H](O)[C@H](C)O1 , is the recorded pIC50 at or above 6?
Result: Criterion met

Q: Identify whether the reported pIC50 of the following molecule is 6 or greater: CC(=O)O[C@H]1C(=O)[C@@]2(C)[C@H]([C@H](OC(=O)c3ccccc3)[C@]3(O)C[C@H](OC(=O)[C@H](O)[C@@H](NC(=O)c4ccccc4)c4ccccc4)C(C)=C1C3(C)C)[C@]1(OC(C)=O)CO[C@@H]1C[C@@H]2O
Result: Criterion met

Q: Form field: pIC50 at least 6? Entry: CC[C@H](CO)Nc1nc(NCc2ccccc2)c2ncn(C(C)C)c2n1
Result: Criterion not met

More entries:
Q: Say whether COC1=CC(c2cc3ccccc3[nH]2)=N/C1=C\c1[nH]c(C)cc1C [OBATOCLAX MESYLATE] shows pIC50 of 6 or more.
Result: Criterion met

---

Tested on: HCC1954
Test: cells
Type: functional, cell-based, Homo sapiens
Settings: hcc1954
Description: SANGER: Inhibition of human HCC1954 cell growth in a cell viability assay.
MEASURED PARAMETER: IC50 (µM)
Express it in µM; write the number only.

Q: Please respond with reported IC50 (system HCC1954) for BLEOMYCIN .
Result: 84.2

---

Test system: MCF7
Test: cells
Assay type: functional, cell-based, Homo sapiens
Conditions: Homo sapiens, MCF7
Description: SANGER: Inhibition of human MCF7 cell growth in a cell viability assay.
pIC50: −log10 of the molar value.
MEASURED PARAMETER: pIC50

The examples below pair each entry with its known result.
Q: State its pIC50 for this compound: Cc1cc([N+](=O)[O-])ccc1NS(=O)(=O)c1cc(Cl)ccc1Cl
Result: 5.58

Q: Supply recorded pIC50 for CO[C@H]1C[C@@H]2CC[C@@H](C)[C@@](O)(O2)C(=O)C(=O)N2CCCC[C@H]2C(=O)O[C@H]([C@H](C)C[C@@H]2CC[C@@H](OC(=O)C(C)(CO)CO)[C@H](OC)C2)CC(=O)[C@H](C)/C=C(\C)[C@@H](O)[C@@H](OC)C(=O)[C@H](C)C[C@H](C)/C=C/C=C/C=C/1C here.
Result: < 6.70

Q: Give pIC50 for the following compound: O=C(O)c1ccc(-c2c[nH]c3ncc(-c4ccccc4)cc23)cc1C1CCCC1
Result: 5.74

***
Q: Item CCC/C=C/C=C/C(=O)O[C@H]1/C(=C/C(=O)OC)C[C@H]2C[C@H]([C@@H](C)O)OC(=O)C[C@H](O)C[C@@H]3C[C@H](OC(C)=O)C(C)(C)[C@](O)(C[C@@H]4C/C(=C/C(=O)OC)C[C@H](/C=C/C(C)(C)[C@]1(O)O2)O4)O3 : provide pIC50
Result: < 8.10

Q: Look up and state reported pIC50 for CS(=O)(=O)c1ccc(C(=O)Nc2ccc(Cl)c(-c3ccccn3)c2)c(Cl)c1
Result: < 5.00

Q: Consider the compound Nc1cccc2c1CN(C1CCC(=O)NC1=O)C2=O (stereo unspecified) [LENALIDOMIDE] . State its measured pIC50.
Result: < 5.30

---

Let's look at some molecules and their measured IC50.
Test system: EHEB
Assay: cells
Assay type: functional, cell-based, Homo sapiens
Conditions: Homo sapiens, EHEB
Description: SANGER: Inhibition of human EHEB cell growth in a cell viability assay.
Give just the numeric value; µM need not be written.

Q: Lab note: EHEB assay, enter IC50 for COc1cccc2c1C(=O)c1c(O)c3c(c(O)c1C2=O)C[C@@](O)(C(=O)CO)C[C@@H]3O[C@H]1C[C@H](N)[C@H](O)[C@H](C)O1 [DOXORUBICIN] here
Result: 0.113

Alright, here's another molecule for you.
Q: Report its IC50 with EHEB as the test system: N#Cc1c(O)c2c(-c3ccc(-c4ccccc4O)cc3)csc2[nH]c1=O
Result: 0.0633

---

Measured pIC50 by item
Tested on: NCI-H441
Experiment: cells
Assay type: functional, cell-based, Homo sapiens
Settings: Homo sapiens, NCI-H441
Description: SANGER: Inhibition of human NCI-H441 cell growth in a cell viability assay.
pIC50: −log10 of the molar value. Structures can show the parent of a compound that is named as a salt.

Study these solved cases before continuing.
Q: Return pIC50 for the following molecule: COC1=CC(c2cc3ccccc3[nH]2)=N/C1=C\c1[nH]c(C)cc1C [OBATOCLAX MESYLATE]
Result: 6.72

Q: For COc1cc2c(Nc3ccc(NC(=O)c4ccccc4)cc3)ncnc2cc1OCCCN1CCOCC1 , write its pIC50.
Result: < 5.40

Q: Give pIC50 for Oc1ccc2ccccc2c1SSc1c(O)ccc2ccccc12
Result: < 4.49

---
Q: Check the records and state pIC50 for CCC/C=C/C=C/C(=O)O[C@H]1/C(=C/C(=O)OC)C[C@H]2C[C@H]([C@@H](C)O)OC(=O)C[C@H](O)C[C@@H]3C[C@H](OC(C)=O)C(C)(C)[C@](O)(C[C@@H]4C/C(=C/C(=O)OC)C[C@H](/C=C/C(C)(C)[C@]1(O)O2)O4)O3 [BRYOSTATIN 1]
Result: < 8.10

Q: Indicate the recorded pIC50 value for this molecule: CC(C)CCN1c2nc(Nc3cc(F)c(O)c(F)c3)ncc2N(C)C(=O)C1C (stereo not given)
Result: < 5.30

---

Test system: DB
Assay: cells
Format: functional, cell-based, Homo sapiens
Conditions: db
Description: SANGER: Inhibition of human DB cell growth in a cell viability assay.
MEASURED PARAMETER: pIC50
Here pIC50 is given on a logarithmic scale as minus log10 of the concentration in mol/L.

Q: Identify the reported pIC50 for the following entry. BLEOMYCIN
Result: 5.29
